Target: PDHK2-T302A (Rattus norvegicus, UniProt Q64536, T310A)
Experiment: ATP, ADP and DCA binding by quenching of intrinsic tryptophan fluorescence
Conditions: Kd, fixed ligand ADP (500 μM)
pKd: −log10 of the molar value.

compound	pKd
O=C(O)C(Cl)Cl [DCA, dichloroacetate]	3.99

---

Biological target: PDHK2-Y320F (Rattus norvegicus, UniProt Q64536, Y328F)
Test: ATP, ADP and DCA binding by quenching of intrinsic tryptophan fluorescence
Details: fixed ligand DCA (0.5 mM)
pKd: −log10 of the molar value.

molecule-smiles	system-name	pKd
Nc1ncnc2c1ncn2[C@@H]1O[C@H](COP(=O)(O)OP(=O)(O)O)[C@@H](O)[C@H]1O	PDHK2-Y320F (Rattus norvegicus, UniProt Q64536, Y328F)	5.60
